# maps each entry to its MIC
- Tested on: AECO001 (ATCC25922)
- ASSAY_PROTOCOL: MIC broth microdilution, AECO001
- Format: cell-based, E. coli
- TEST_SETTINGS: Escherichia coli, ATCC25922, read-out: MIC AECO001

// solved cases for MIC follow
MOLECULE	MIC
CC(C)(N)[C@H](NC(=O)c1ccc(C#CC#Cc2cncs2)cc1)C(=O)NO [Example 88-16]	< 2 µg/mL
CC(C)(N)[C@H](NC(=O)c1ccc(C#CC#CC2CCC2)cc1)C(=O)NO [Example 91-16]	< 2 µg/mL
O=C(CNC1CC1)NC[C@H](NC(=O)c1ccc(C#C/C=C/c2ccc(CN3CCOCC3)cc2)cc1)C(=O)NO [Example 100-1]	< 2 µg/mL

Please look at the following molecule next.
Inquiry: Value wanted: MIC (AECO001 (ATCC25922)) of entry CC(C)(N)[C@H](NC(=O)c1ccc(/C=C/C#CC2CC2)cc1)C(=O)NO [Example 114-18]
Reply text: < 2 µg/mL

###

- Tested on: ASAU001 (laboratory strain of S. aureus, ATCC29213)
- ASSAY_PROTOCOL: MIC broth microdilution, ASAU001
- Format: cell-based
- TEST_SETTINGS: Staphylococcus aureus, ATCC29213, read-out: MIC ASAU001
MEASURED_ATTRIBUTE: MIC

// solved cases for MIC follow
MOLECULE	MIC
C[C@@H](O)[C@H](NC(=O)c1ccc(C#Cc2ccncc2)cc1)C(=O)NO [Example 133-13]	16 to 64 µg/mL
CC(C)(O)[C@H](NC(=O)c1ccc(C#C/C=C/c2ccc(CN3CCOCC3)cc2)cc1)C(=O)NO [Compound 97-2]	16 to 64 µg/mL

Inquiry: I am curious: what MIC value has been reported for CC(C)(N)[C@H](NC(=O)c1ccc(C#CC#Cc2cccnc2)cc1)C(=O)NO [Example 88-8] ?
Reply text: 16 to 64 µg/mL

Inquiry: Then this molecule: C[C@H](N)[C@H](NC(=O)c1ccc(C#Cc2ccccc2)cc1)C(=O)NO [Example 133-1]
Reply text: 16 to 64 µg/mL

###

- System: AECO001 (ATCC25922)
- ASSAY_PROTOCOL: MIC broth microdilution, AECO001
- Type: cell-based, E. coli
- TEST_SETTINGS: Escherichia coli, ATCC25922, read-out: MIC AECO001
# maps each entry to its MIC

// solved cases for MIC follow
COMPOUND	RESULT
C[C@@H](N)[C@H](NC(=O)c1ccc(/C=C/C#CC2CC2)cc1)C(=O)NO	2 to 16 µg/mL
CC(C)(N)[C@H](NC(=O)c1ccc(C#CC#Cc2ccc(O)cc2)cc1)C(=O)NO	< 2 µg/mL
O=C(CNC1CC1)NC[C@H](NC(=O)c1ccc(/C=C/C#Cc2ccc(CO)cc2)cc1)C(=O)NO	< 2 µg/mL
C[C@@H](N)[C@H](NC(=O)c1ccc(C#C/C=C/c2ccncc2)cc1)C(=O)NO	< 2 µg/mL
C[C@@H](N)[C@H](NC(=O)c1ccc(C#Cc2ccc(CNS(C)(=O)=O)cc2)cc1)C(=O)NO	2 to 16 µg/mL

Inquiry: I am curious: what MIC value has been reported for C[C@@H](N)[C@H](NC(=O)c1ccc(C#Cc2ccc(CN(C)Cc3cccnc3)cc2)cc1)C(=O)NO ?
Reply text: < 2 µg/mL

Inquiry: Then this compound: C[C@@H](N)[C@H](NC(=O)c1ccc(C#Cc2ccc(CS(C)(=O)=O)cc2)cc1)C(=O)NO
Reply text: 2 to 16 µg/mL

Inquiry: Then this compound: O=C(CNC1CC1)NC[C@H](NC(=O)c1ccc(C#Cc2ccccc2)cc1)C(=O)NO
Reply text: < 2 µg/mL

###

- Test system: AABA1060 (clinical isolate of Acinetobacter baumannii)
- ASSAY_PROTOCOL: MIC broth microdilution, AABA1060
- Assay type: cell-based
- TEST_SETTINGS: Acinetobacter baumannii, read-out: MIC AABA1060
- Procedure: Bacterial isolates were cultivated from −70° C. frozen stocks by overnight passages at 35° C. in ambient air on Mueller-Hinton agar (Beckton Dickinson, Franklin Lakes, N.J.). […] Minimum Inhibitory Concentrations (MICs) were determined by the broth microdilution method in accordance with the Clinical and Laboratory Standards Institute (CLSI) guidelines. […]
MEASURED_ATTRIBUTE: MIC

C[C@@H](O)[C@H](NC(=O)c1ccc(/C=C/C#Cc2ccccc2)cc1)C(=O)NO < 2 µg/mL

Inquiry: I am curious: what MIC value has been reported for C[C@H](N)[C@H](NC(=O)c1ccc(C#Cc2ccc(CN3CCOCC3)cc2)cc1)C(=O)NO ?
Reply text: 16 to 64 µg/mL

Inquiry: Then this compound: C[C@@H](N)[C@H](NC(=O)c1ccc(C#Cc2ccc(CN3CCC3)cc2)cc1)C(=O)NO
Reply text: 16 to 64 µg/mL

Inquiry: Then this compound: C[C@@H](N)[C@H](NC(=O)c1ccc(/C=C/C#Cc2ccc(CO)cc2)cc1)C(=O)NO
Reply text: 2 to 16 µg/mL

###

# maps each entry to its MIC
- System: AABA1060 (clinical isolate of Acinetobacter baumannii)
- ASSAY_PROTOCOL: MIC broth microdilution, AABA1060
- Assay type: cell-based
- TEST_SETTINGS: Acinetobacter baumannii, read-out: MIC AABA1060

// solved cases for MIC follow
MOLECULE	TEST_TARGET	MEASURED_ATTRIBUTE	RESULT
C[C@@H](O)[C@H](NC(=O)c1ccc(C#C/C=C/c2ccc(CN3CCOCC3)cc2)cc1)C(=O)NO	AABA1060 (clinical isolate of Acinetobacter baumannii)	MIC	2 to 16 µg/mL
CC(C)[C@H](NC(=O)c1ccc(/C=C/C#Cc2ccc(CN3CCOCC3)cc2)cc1)C(=O)NO	AABA1060 (clinical isolate of Acinetobacter baumannii)	MIC	2 to 16 µg/mL
C[C@@H](O)[C@H](NC(=O)c1ccc(CCc2ccc(CN3CCOCC3)cc2)cc1)C(=O)NO	AABA1060 (clinical isolate of Acinetobacter baumannii)	MIC	16 to 64 µg/mL
C[C@@H](N)[C@H](NC(=O)c1ccc(C#Cc2cncnc2)cc1)C(=O)NO	AABA1060 (clinical isolate of Acinetobacter baumannii)	MIC	< 2 µg/mL
CO[C@H](C)[C@H](NC(=O)c1ccc(C#C/C=C/c2ccc(CN3CCOCC3)cc2)cc1)C(=O)NO	AABA1060 (clinical isolate of Acinetobacter baumannii)	MIC	2 to 16 µg/mL
CC(C)CCC#CC#Cc1ccc(C(=O)N[C@H](C(=O)NO)[C@@H](C)N)cc1	AABA1060 (clinical isolate of Acinetobacter baumannii)	MIC	2 to 16 µg/mL
C[C@@H](N)[C@H](NC(=O)c1ccc(C#CC(O)c2ccc(CO)cc2)cc1)C(=O)NO (stereo partly shown)	AABA1060 (clinical isolate of Acinetobacter baumannii)	MIC	16 to 64 µg/mL
CC(C)(O)[C@H](NC(=O)c1ccc(C#CC#Cc2ccc(CNC3CC3)cc2)cc1)C(=O)NO	AABA1060 (clinical isolate of Acinetobacter baumannii)	MIC	< 2 µg/mL
C[C@@H](N)[C@H](NC(=O)c1ccc(C#CC#Cc2cncn2C)cc1)C(=O)NO	AABA1060 (clinical isolate of Acinetobacter baumannii)	MIC	16 to 64 µg/mL
CC(C)(N)[C@H](NC(=O)c1ccc(C#CC#CCC2CC2)cc1)C(=O)NO	AABA1060 (clinical isolate of Acinetobacter baumannii)	MIC	< 2 µg/mL

Inquiry: Value wanted: MIC (AABA1060 (clinical isolate of Acinetobacter baumannii)) of entry C[C@@H](N)[C@H](NC(=O)c1ccc(C#CC#Cc2ccc(OC3CC3)cc2)cc1)C(=O)NO
Reply text: 16 to 64 µg/mL

Inquiry: Then this molecule: C[C@@H](N)[C@H](NC(=O)c1ccc(C#Cc2ccc(CNCCC#N)cc2)cc1)C(=O)NO
Reply text: 2 to 16 µg/mL

Inquiry: Then this molecule: C[C@H](N)[C@H](NC(=O)c1ccc(C#Cc2ccc(CO)cc2)cc1)C(=O)NO
Reply text: > 64 µg/mL

Inquiry: Then this molecule: O=C(NC(C(=O)NO)C1CCNC1)c1ccc(C#Cc2ccc(CN3CCOCC3)cc2)cc1 (stereo not shown)
Reply text: 16 to 64 µg/mL

Inquiry: Then this molecule: CC(C)(N)[C@H](NC(=O)c1ccc(/C=C/C#Cc2ccccc2)cc1)C(=O)NO
Reply text: < 2 µg/mL

Inquiry: Then this molecule: C[C@H](O)[C@H](NC(=O)c1ccc(/C=C/C#Cc2ccc(CN3CCOCC3)cc2)cc1)C(=O)NO
Reply text: 2 to 16 µg/mL

###

- Tested on: ASAU001 (laboratory strain of S. aureus, ATCC29213)
- ASSAY_PROTOCOL: MIC broth microdilution, ASAU001
- Type: cell-based
- TEST_SETTINGS: Staphylococcus aureus, ATCC29213, read-out: MIC ASAU001
MEASURED_ATTRIBUTE: MIC

// solved cases for MIC follow
COMPOUND	MIC
CC(C)(N)[C@H](NC(=O)c1ccc(C#C/C=C/C2CC2)cc1)C(=O)NO	2 to 16 µg/mL
C[C@@H](NC(=O)CNC1CC1)[C@H](NC(=O)c1ccc(C#Cc2ccc(CN3CCOCC3)cc2)cc1)C(=O)NO	> 64 µg/mL
CC(C)(N)[C@H](NC(=O)c1ccc(C#CC2CC2c2ccccc2)cc1)C(=O)NO (stereo partly shown)	16 to 64 µg/mL
CC(C)(N)[C@H](NC(=O)c1ccc(C#CC#Cc2ccc(CN3CCS(=O)(=O)CC3)cc2)cc1)C(=O)NO	16 to 64 µg/mL

Inquiry: I am curious: what MIC value has been reported for CC(C)(O)[C@H](NC(=O)c1ccc(C#Cc2ccccc2)cc1)C(=O)NO ?
Reply text: 16 to 64 µg/mL

Inquiry: Then this compound: C[C@@H](N)[C@H](NC(=O)c1ccc(C#CC#Cc2ccc(CNCC(F)F)cc2)cc1)C(=O)NO
Reply text: 16 to 64 µg/mL

Inquiry: Then this compound: C[C@@H](N)[C@H](NC(=O)c1ccc(/C=C/C#Cc2ccccc2)cc1)C(=O)NO
Reply text: 2 to 16 µg/mL

Inquiry: Then this compound: C[C@@H](N)[C@H](NC(=O)c1ccc(/C=C/C#Cc2ccc(Cl)cc2)cc1)C(=O)NO
Reply text: 16 to 64 µg/mL

Inquiry: Then this compound: C[C@@H](N)[C@H](NC(=O)c1ccc(/C=C/C#CC2CC2)cc1)C(=O)NO
Reply text: 16 to 64 µg/mL

Where these numbers come from: patent US9617256B2
